# key: entry, value: koff
# target_or_system: T1, His-tagged ectodomain of human transferrin receptor 1 (hTfR1, R121-F760) (human, UniProt P02786 121-760)
# T1 construct: Made in CHO cells; Biotinylated for some uses; also called human TfR1
# T1 sequence (P02786 other isoform, or with tags, fused parts or gaps limits assumed): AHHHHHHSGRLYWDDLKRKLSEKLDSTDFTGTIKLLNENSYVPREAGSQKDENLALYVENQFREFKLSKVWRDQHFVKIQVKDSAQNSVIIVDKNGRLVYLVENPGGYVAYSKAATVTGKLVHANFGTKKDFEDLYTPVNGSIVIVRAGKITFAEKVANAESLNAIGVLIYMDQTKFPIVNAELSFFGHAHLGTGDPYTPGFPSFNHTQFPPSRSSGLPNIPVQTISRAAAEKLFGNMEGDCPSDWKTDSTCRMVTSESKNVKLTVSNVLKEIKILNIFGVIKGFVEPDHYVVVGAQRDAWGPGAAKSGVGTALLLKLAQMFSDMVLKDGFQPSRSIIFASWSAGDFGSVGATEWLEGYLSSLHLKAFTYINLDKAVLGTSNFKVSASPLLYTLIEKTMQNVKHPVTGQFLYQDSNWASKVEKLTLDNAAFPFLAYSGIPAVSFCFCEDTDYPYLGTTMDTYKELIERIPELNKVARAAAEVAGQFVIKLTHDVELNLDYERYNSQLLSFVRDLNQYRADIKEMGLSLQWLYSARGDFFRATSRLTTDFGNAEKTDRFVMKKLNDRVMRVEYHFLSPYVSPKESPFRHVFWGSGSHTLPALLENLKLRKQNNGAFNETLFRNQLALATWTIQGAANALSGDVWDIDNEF
# assay_details: SPR Biacore 8K single-cycle; hTfR1 amine-coupled to CM5 chip, fusion as analyte
Please give the number followed by its unit.

Field: example entries. Status: answers known.
- binder: "scFv-BV (3D6 scFv at the N-terminus of benchmark VHH BV) (bispecific antibody, also called scFc-BV) EVKLVESGGGLVKPGASLKLSCAASGFTFSNYGMSWVRQNSDKRLEWVASIRSGGGRTYYSDNVKGRFTISRENAKNTLYLQMSSLKSEDTALYYCVRYDHYSGSSDYWGQGTTVTVSGGGGSGGGGSGGGGSYVVMTQTPLTLSVTIGQPASISCKSSQSLLDSDGKTYLNWLLQRPGQSPKRLIYLVSKLDSGVPDRFTGSGSGTDFTLKISRIEAEDLGLYYCWQGTHFPRTFGGGTKLEIKGGGGSGGGGSGGGGSEVQLVESGGGVVQPGGSLKLSCVASGTDFSINFIRWYRQAPGKQREFVAGFTATGNTNYADSMKGRFTISRDNTKNAVYLQIDSLKPEDTAVYYCYMLDKWGQGTQVTVSSGSENLYFQSHHHHHH"
  assay_readout: "koff"
  endpoint_result: "0.000122 s⁻¹"
- binder: "KB_B01-scFv (KB_B01 at the N-terminus of 3D6 scFv) (bispecific antibody, also called VHH-scFv) QVQLQESGGGLVQAGGSLRLSCAASGTPFSNNYMRWYRQAPGKQREWVAGFTSGGSTNYADSVKGRFTISRDNAEGTVYLQMDNLKPEDTAVYYCYFLDVWGQGTQVTVSSGGGGSGGGGSGGGGSEVKLVESGGGLVKPGASLKLSCAASGFTFSNYGMSWVRQNSDKRLEWVASIRSGGGRTYYSDNVKGRFTISRENAKNTLYLQMSSLKSEDTALYYCVRYDHYSGSSDYWGQGTTVTVSGGGGSGGGGSGGGGSYVVMTQTPLTLSVTIGQPASISCKSSQSLLDSDGKTYLNWLLQRPGQSPKRLIYLVSKLDSGVPDRFTGSGSGTDFTLKISRIEAEDLGLYYCWQGTHFPRTFGGGTKLEIKGSENLYFQSHHHHHH"
  assay_readout: "koff"
  endpoint_result: "0.00045 s⁻¹"
- binder: "scFv-KB_B01 (3D6 scFv at the N-terminus of KB_B01) (bispecific antibody, also called scFv-VHH) EVKLVESGGGLVKPGASLKLSCAASGFTFSNYGMSWVRQNSDKRLEWVASIRSGGGRTYYSDNVKGRFTISRENAKNTLYLQMSSLKSEDTALYYCVRYDHYSGSSDYWGQGTTVTVSGGGGSGGGGSGGGGSYVVMTQTPLTLSVTIGQPASISCKSSQSLLDSDGKTYLNWLLQRPGQSPKRLIYLVSKLDSGVPDRFTGSGSGTDFTLKISRIEAEDLGLYYCWQGTHFPRTFGGGTKLEIKGGGGSGGGGSGGGGSQVQLQESGGGLVQAGGSLRLSCAASGTPFSNNYMRWYRQAPGKQREWVAGFTSGGSTNYADSVKGRFTISRDNAEGTVYLQMDNLKPEDTAVYYCYFLDVWGQGTQVTVSSGSENLYFQSHHHHHH"
  assay_readout: "koff"
  endpoint_result: "0.000259 s⁻¹"

Given the binder BV-scFv (benchmark VHH BV at the N-terminus of 3D6 scFv) (bispecific antibody) EVQLVESGGGVVQPGGSLKLSCVASGTDFSINFIRWYRQAPGKQREFVAGFTATGNTNYADSMKGRFTISRDNTKNAVYLQIDSLKPEDTAVYYCYMLDKWGQGTQVTVSSGGGGSGGGGSGGGGSEVKLVESGGGLVKPGASLKLSCAASGFTFSNYGMSWVRQNSDKRLEWVASIRSGGGRTYYSDNVKGRFTISRENAKNTLYLQMSSLKSEDTALYYCVRYDHYSGSSDYWGQGTTVTVSGGGGSGGGGSGGGGSYVVMTQTPLTLSVTIGQPASISCKSSQSLLDSDGKTYLNWLLQRPGQSPKRLIYLVSKLDSGVPDRFTGSGSGTDFTLKISRIEAEDLGLYYCWQGTHFPRTFGGGTKLEIKGSENLYFQSHHHHHH , write its reported koff. 0.000117 s⁻¹
